All figures here come from PubChem BioAssay (NCATS).

# TEST_SUMMARY: Primary qHTS to identify inhibitors of SARS-CoV-2 cell entry (AID 1645846)
# CONDITIONS: SARS-CoV-2 pseudovirus cell entry assay, luminescence; at 57.1 µM (top of the series) unless noted
Inconclusive results are not listed.
Listed below: activity change, negative = inhibition values for each entry.
Write the value in % as a bare number.

Consider the following illustrative entries.
{"COMPOUND": "Cc1ccccc1N1C(=O)c2cc(S(N)(=O)=O)c(Cl)cc2NC1C (stereo unspecified)", "activity change, negative = inhibition / %": -97.4}
{"COMPOUND": "CC(C)CC(N(C)C)C1(c2ccc(Cl)cc2)CCC1 (stereo unspecified)", "activity change, negative = inhibition / %": 2.03}
{"COMPOUND": "CCCC(CCC)C(=O)O", "activity change, negative = inhibition / %": -12.6}
{"COMPOUND": "CC(C)(C)NCC(O)c1cc(Cl)c(N)c(Cl)c1 (stereo unspecified)", "activity change, negative = inhibition / %": 0.184}
{"COMPOUND": "CCCCOCCOCCOCc1cc2c(cc1CCC)OCO2", "activity change, negative = inhibition / %": -2.81}

Which activity change, negative = inhibition is listed for CCOC(=O)Nc1ccc2c(c1)N(C(=O)CCN1CCOCC1)c1ccccc1S2 ?
-15.7

Which activity change, negative = inhibition is listed for CCOC(=O)c1ncn2c1CN(C)C(=O)c1cc(F)ccc1-2 ?
-12.9

Which activity change, negative = inhibition is listed for O=C(O)COCCN1CCN(C(c2ccccc2)c2ccc(Cl)cc2)CC1 (stereo unspecified) ?
-14.4

Which activity change, negative = inhibition is listed for CC1(CN2CCC(n3c(=O)[nH]c4ccccc43)CC2)OCc2ccccc2-n2cccc21 (stereo unspecified) ?
-26.7

Which activity change, negative = inhibition is listed for C=C(C)[C@H]1Cc2c(ccc3c2O[C@@H]2COc4cc(OC)c(OC)cc4[C@@H]2C3=O)O1 ?
-94.7

Which activity change, negative = inhibition is listed for NC(=Nc1ccccc1)Nc1ccccc1 ?
1.43
